protocol: GST conjugation of Atrazine with glutathione (HPLC)
Type: biochemical
setup-conditions: purified enzyme, 0.4 mM electrophilic substrate, 4 mM glutathione, 0.1 M MOPS pH 7.0
The entries below are paired with their reported activity of enzyme with Atrazine.
Hi! Could you send only the number? It should be in nmol/min/mg, unit omitted.

Examples from the recorded data:
[
  {
    "molecule": "m.15.5.d06.sk20: maize class II GST enzyme encoded by cDNA clone, expressed in E. coli (protein) MAEVEATVGRLMLYSYWRSSCSHRARIALNLKGVDYEYKAVNLLKGEQSDPEFVKLNPMKFVPALVDGSSVIGDSYAITLYLEDKYPEPPLLPQDLQKKALNHQIASIVASGIQPLHNLTVLRFIDQKVGAGESVLWTQQQIERGFTAIENLIQLKGCAGKYATGDEVQLADVFLAPQIYAAIERTKIDMSNYLTLARLHSEYMSHPAFEAALPGKQPDAPSSS",
    "experimental-endpoint": "activity of enzyme with Atrazine",
    "unit-abbrev": "nmol/min/mg",
    "value-measured": 0.00
  },
  {
    "molecule": "ceb1.pk0017.a5: maize class I GST enzyme encoded by cDNA clone, expressed in E. coli (protein) MAAPVTVYGPMLSPAVARVAACLLEKDVPFQIEPVDMSKGEHKSPSFLKLQPFGQVPAFKDHLTTVFESRAICRYICDQYADSGNQALFGKKEDGAVGRAAIEQWIESEGQSFNPPSLAIIFQLAFAPMMGRTTDLAVVEQNEAKLAKVLDVYDQRLGESQYFAGDDFSPGRPCALAQCRFPCEQNQQGWLDHREKESC",
    "experimental-endpoint": "activity of enzyme with Atrazine",
    "unit-abbrev": "nmol/min/mg",
    "value-measured": 0.00
  },
  {
    "molecule": "cs1.pk0010.c5: maize class I GST enzyme encoded by cDNA clone, expressed in E. coli (protein) MAAGLQVFGQPASTDVARVLTCLFEKKLEFELVRIDTFKTHHRLPEFIRLRDPNGQVTFKHGDKTLVDSRDICRYVCNQFPNYGNKSLYGSGALERASIEQWLQAEAQNFGPPSSALVFQLAFVPHLSHLGVRQDPAVIAENEDKLKQVLDVYDEILSKNEYLAGDEFTLADLSHLPNSHYIVNTERGRKLFTNKKNVAKWYDRLSKRETWVQVVKMQKEHPGAFK",
    "experimental-endpoint": "activity of enzyme with Atrazine",
    "unit-abbrev": "nmol/min/mg",
    "value-measured": 0.00
  }
]

Q) Any idea what its activity of enzyme with Atrazine is? The molecule is ceb5.pk0051.f8: maize class III GST enzyme encoded by cDNA clone, expressed in E. coli (protein) MAGETKKGLVLLDFWVSPFGQRCRIALAEKGIAYEYSEQELLGGAKSDILLRSNPVHKKIPVLLHDGRPVCESLVILEYLEEAFPEASPRLLPDAAYARAQARFWAAYSDKVYKAGTRLWKLRGDARAQARAEIVQVVRNLDGELGDKAFFGGEAFGFVDVALVPFVPWLPSYERYGDFSVAEIAPRLAAWARRCAQRESVARTLHPPEKVDEFINLLKKTYGIE
A) 0.08

The reported numbers originate from patent US6096504A.
